Reported kon values for the following binders.
Molecular target: T1, huIgG1 monoFc tagged GALV gp70 protein (residues 42-474) (Gibbon ape leukemia virus, UniProt P21415 42-474)
T1 construct: also called gp70 (42-474)
T1 sequence: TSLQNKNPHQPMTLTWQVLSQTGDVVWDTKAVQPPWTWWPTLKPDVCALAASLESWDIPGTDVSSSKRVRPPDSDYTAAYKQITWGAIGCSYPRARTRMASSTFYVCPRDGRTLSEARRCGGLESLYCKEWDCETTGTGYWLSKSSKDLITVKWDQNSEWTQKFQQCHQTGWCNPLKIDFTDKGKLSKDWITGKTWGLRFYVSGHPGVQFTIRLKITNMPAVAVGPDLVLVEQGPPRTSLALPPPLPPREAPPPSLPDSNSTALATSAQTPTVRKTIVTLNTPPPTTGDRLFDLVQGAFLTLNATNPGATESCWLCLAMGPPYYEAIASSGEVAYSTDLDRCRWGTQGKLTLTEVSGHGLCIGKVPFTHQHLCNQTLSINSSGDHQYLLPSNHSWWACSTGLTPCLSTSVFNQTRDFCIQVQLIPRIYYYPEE
Assay: BLI Octet Red96; antibody on AMC biosensor, 100 nM monoFc-gp70(42-474) analyte

{"BINDER": "40A6 (antibody, V domains shown, Anti-GALV gp70; One id for the hybridoma supernatant and the recombinant murine IgG2a antibody; also called 40A6-HC / 40A6-LC) VH: EVQLVESGGGLVKPGGSLKLSCAASGFTFSSYVLSWVRQIPEKRLEWVATINSGGSYTYYPDSVKGRFTISRDNAKNTLYLQMSSLRSEDTAIYYCARHLIYYDYDGYYFDTWGQGTSLTVSS VL: DVVMTQTPLSLPVSLGDQASISCRSSQTLVHSNGNIYLHWYLQKPGQSPKLLIYKVSNRFSGVPDRFSGSGSGTDFTLKISRVETEDLGIYFCSQTTHVPPTFGGGTKLEIK", "kon, M⁻¹ s⁻¹": 38300}
{"BINDER": "40A3 (antibody, V domains shown, Anti-GALV gp70; One id for the hybridoma supernatant and the recombinant murine IgG2a antibody; also called 40A3-HC / 36H3-LC) VH: DVQLQESGPDLVKPSQSLSLTCTVTDFSITSDYTWHWVRQFPGNKLEWMAYIHYSGGTNYNPSLRSRISITRDTSKNQFFLHMNSVTTEDTATYYCLYYGSRDAVDYWGQGTSVTVSS VL: QIVLTQSPAIMSASPGEKVTMTCSTSSSVTYMHWYQQKSGTSPKRWIYDTSKLASGVPARFSGSGSGTSYSLTISSMEAEDAATYYCQQWSSSPYTFGGGTKLEIK", "kon, M⁻¹ s⁻¹": 114000}
{"BINDER": "35C11 (antibody, V domains shown, also called 35C11-HC / 35C11-LC) VH: QVQLQQSGPELVRPGVSVKISCKVSGYTFTDYTMHWVKQSHAKSLEWIGLISTYSGKTNYNQKLKDKATMTVDKSSSTAYMELARLTSEDSAIFYCARGGLRDAMDYWGQGTSVTVSS VL: DIVLTQSPASLAVSLGQGATISCRASESVDSYGNSFMHWYQQKPGQPPKLLIYRASNLESGIPARFSGSGSGTDFTLTINPVEADDVATYYCLQSNEDPRTFGGGTKLEIK", "kon, M⁻¹ s⁻¹": 51500}
